Tested on: K562
PROTOCOL: NCI tumour cell line growth inhibition, 48 h
Active and inactive are the calls of the source. Rule as the data show it: active = GI50 up to about 1.1 µM and inactive = higher.
Listing of recorded GI50 by entry.

A selection of reference data follows.
Request: Which GI50 value is on record for O=C(O)Cn1c(=O)[nH]c(=O)c2[nH]cnc21 ?
Response: > 100 µM (inactive)

Request: Which GI50 value is on record for COC(=O)C(C)NP(=O)(N1CC1)N1CC1 (centres undefined) ?
Response: > 100 µM (inactive)

Request: Which GI50 value is on record for O=C1C=CC2(O)OCC3C=C4O[C@@H]5OC6(CCCCC6)O[C@@H]5C4[C@@H]2[C@@H]13 (some centres undefined) ?
Response: 14.5 µM (inactive)

Request: Which GI50 value is on record for COS(=O)c1cc(Cl)cc(Cl)c1O (centres undefined) ?
Response: > 100 µM (inactive)

Request: Which GI50 value is on record for COc1cc(C2c3cc4c(cc3[C@@H](Nc3ccc(Oc5ccccc5)cc3)C3COC(=O)[C@H]23)OCO4)cc(OC)c1O (some centres undefined) ?
Response: 1.14 µM (inactive)

Request: Which GI50 value is on record for COC(=O)C12C3C4C5C3(C#N)C1C5(C(=O)OC)C42C(=O)N(C(C)C)C(C)C (centres undefined) ?
Response: > 49.4 µM (inactive)

Request: Which GI50 value is on record for CC[C@]12C=CCN3CC[C@@]4(c5cc(Br)c(OC)cc5N(C)[C@H]4[C@@](O)(C(=O)NN)[C@@H]1O)[C@@H]32 ?
Response: 48.2 µM (inactive)

Request: Which GI50 value is on record for COc1c(C)c(OC)c2c(c1O)[C@@H]1[C@@H]3Cc4c(OC)c(C)c(OC)c(O)c4[C@H](CNC(=O)c4cnc5ccccc5n4)N3[C@@H](C#N)[C@H](C2)N1C ?
Response: 0.000977 µM (active)

Further cases:
Request: Which GI50 value is on record for NC(=O)c1cccc(OCC(O)CO)c1 (centres undefined) ?
Response: > 100 µM (inactive)

* * *

Listing of recorded GI50 by entry.
System: SR
PROTOCOL: NCI tumour cell line growth inhibition, 48 h
Active and inactive are the calls of the source. Rule as the data show it: active = GI50 up to about 1.1 µM and inactive = higher.

Request: Which GI50 value is on record for CCOC(=O)/C=C(/C(=O)OCC)n1cc(C)c(=O)n(/C(=C/C(=O)OCC)C(=O)OCC)c1=O ?
Response: 1.89 µM (inactive)

Request: Which GI50 value is on record for O=[N+]([O-])C=C(c1ccc(Cl)cc1)c1ccc(Cl)cc1 ?
Response: 19.5 µM (inactive)

Request: Which GI50 value is on record for COc1ccc2c(c1)CCc1[nH]c3ccccc3c1CCCC2 ?
Response: > 10 µM (inactive)

Further cases:
Request: Which GI50 value is on record for Cc1cccc(C)c1NC(=O)C(Cc1c[nH]c2ccccc12)NC(=O)OCc1ccccc1 (stereo not drawn) ?
Response: 22.5 µM (inactive)

Request: Which GI50 value is on record for COc1c(C)c(OC)c2c(c1O)[C@@H]1[C@@H]3Cc4c(OC)c(C)c(OC)c(O)c4[C@H](CNC(=O)c4cnc5ccccc5n4)N3[C@@H](C#N)[C@H](C2)N1C ?
Response: 0.000182 µM (active)

Request: Which GI50 value is on record for CN(C)CCNC(=O)c1cccc2nc3c(C(=O)NCCN(C)C)cccc3nc12 ?
Response: 0.368 µM (active)

Request: Which GI50 value is on record for O=C(Cc1ccccc1CCO)NCCc1ccccc1 ?
Response: > 100 µM (inactive)

Request: Which GI50 value is on record for C1=Cc2nc1c(-c1ccccc1)c1nc(c(-c3ccccc3)c3ccc([nH]3)c(-c3ccccc3)c3ccc([nH]3)c2-c2ccccc2)C=C1 ?
Response: > 100 µM (inactive)

* * *

Test system: Hs-578T
PROTOCOL: NCI tumour cell line growth inhibition, 48 h
Active and inactive are the calls of the source. No stated cut-off is given here; in the data, active = GI50 up to about 1.1 µM and inactive = higher.
Listing of recorded GI50 by entry.

A selection of reference data follows.
Request: Which GI50 value is on record for O=C1c2cc3c(cc2CC1Cc1ccc2c(c1)CCC2)CCC3 (stereo not given) ?
Response: 32.4 µM (inactive)

Request: Which GI50 value is on record for CC(C)(C)c1ccc(/C=N/NC(=O)CSCC(=O)N/N=C/c2ccc(C(C)(C)C)cc2)cc1 ?
Response: 3.17 µM (inactive)

Request: Which GI50 value is on record for CN/C(=N\N)NS(=O)(=O)c1cc(C)c(Cl)cc1S ?
Response: 20.6 µM (inactive)

Further cases:
Request: Which GI50 value is on record for CC12CCCC3(CC(=O)C(C)(C)C3C(=O)C1)C2 (stereo not given) ?
Response: > 100 µM (inactive)

Request: Which GI50 value is on record for N=C(N)c1ccc(OCCCCCOc2ccc(C(=N)N)cc2)cc1 [PENTAMIDINE] ?
Response: 14.9 µM (inactive)

Request: Which GI50 value is on record for COc1cc([N+](=O)[O-])ccc1N1C(=O)C2c3[nH]c4ccccc4c3C3CCC(C(C)(C)C)CC3C2C1=O (stereo not given) ?
Response: 5.6 µM (inactive)

* * *

Test system: M19-MEL
PROTOCOL: NCI tumour cell line growth inhibition, 48 h
Activity calls are given as the source filed them. No stated cut-off is given here; in the data, active = GI50 up to about 1.1 µM and inactive = higher.
PARAMETER: GI50

Request: State its GI50 on M19-MEL: COC(=O)N/N=C(\C)C(CN1CCCCC1)C(C1=C(O)c2ccccc2OC1)c1ccccc1 (centres undefined)
Response: > 100 µM (inactive)

Request: State its GI50 on M19-MEL: CC(CN1CC(=O)NC(=O)C1)N1CC(=O)NC(=O)C1 (centres undefined)
Response: 299 µM (inactive)

--- query ---
Request: State its GI50 on M19-MEL: Cc1ccc(C)c(NC(=O)CCC(=O)CC(=O)C(C)(C)C)c1
Response: > 100 µM (inactive)

* * *

Tested on: CCRF-CEM
PROTOCOL: NCI tumour cell line growth inhibition, 48 h
Calls of active or inactive are those of the source. No stated cut-off is given here; in the data, active = GI50 up to about 1.1 µM and inactive = higher. Where a SMILES comes first, the peptide text is derived from it. The star is where a group is joined. Cbz = O=C(OCc1ccccc1)*
Pick one: active, inactive

Request: Check the results log: what was the call for CN(C)[C@@H]1C(O)=C(C(=O)NCNc2nc3[nH]nnc3c(=O)[nH]2)C(=O)[C@@]2(O)C(O)=C3C(=O)c4c(O)cccc4[C@@](C)(O)[C@H]3C[C@@H]12 ?
Response: active

Further cases:
Request: Check the results log: what was the call for COc1cc(OC)c(-c2oc3ccccc3c(=O)c2O)c(OC)c1 ?
Response: inactive

Request: Check the results log: what was the call for CC1(C)COCN1COC1CCCCC1 ?
Response: inactive

Request: Check the results log: what was the call for CCOC(=O)CCC(NC(=O)C(CC(=O)OC)NC(=O)OCc1ccccc1)C(=O)NC(CC(=O)OC)C(=O)NC(CCC(=O)OCC)C(=O)NC(CC(=O)OC)C(=O)NC(CCC(=O)OCC)C(=O)NC(CC(=O)OCC)C(=O)OCC (configuration not stated) (Cbz-D(OMe)E(OEt)D(OMe)E(OEt)D(OMe)E(OEt)D(OEt)-OEt; configuration not given here) ?
Response: inactive

Request: Check the results log: what was the call for O=C(c1ccccc1)C1OC12C(=O)Nc1ccccc12 (configuration not stated) ?
Response: inactive

Request: Check the results log: what was the call for O=C1/C(=C/c2ccc(O)c(CN3CCCCC3)c2)CCC/C1=C\c1ccc(O)c(CN2CCCCC2)c1 ?
Response: inactive

Request: Check the results log: what was the call for COC(=O)c1cc2c(cc1Cl)Sc1nnc(Nc3ccc(C)cc3)n1S2(=O)=O ?
Response: inactive

* * *

Test system: LOX IMVI
PROTOCOL: NCI tumour cell line growth inhibition, 48 h
Calls of active or inactive are those of the source. Rule as the data show it: active = GI50 up to about 1.1 µM and inactive = higher.
Pick one: active, inactive

Before answering, review these 4 worked examples.
Request: Check the results log: what was the call for O=C(O)c1oc2cccc3c2c1CCC3 ?
Response: inactive

Request: Check the results log: what was the call for N#CC(c1ccnc(Cl)n1)c1nc2ccccc2s1 (stereo not given) ?
Response: inactive

Request: Check the results log: what was the call for NC(=O)NC1C(C(=O)O)N(Cc2ccccc2)C(=O)N1Cc1ccccc1 (stereo not given) ?
Response: inactive

Request: Check the results log: what was the call for COc1c(O)cc(/C=C/c2cc(O)cc3c2[C@@]2(C(=O)O3)c3c(O)cc(O)cc3OC2c2cccc(O)c2)cc1O (stereo not given in full) ?
Response: inactive

Further cases:
Request: Check the results log: what was the call for CC[C@@]1(O)C(=O)OCc2c1cc1n(c2=O)Cc2c-1nc1ccccc1c2/C=N/NC(=O)C[N+](C)(C)C ?
Response: active

* * *

Test system: SF-268
PROTOCOL: NCI tumour cell line growth inhibition, 48 h
Active and inactive are the calls of the source. No stated cut-off is given here; in the data, active = GI50 up to about 1.1 µM and inactive = higher.
Pick one: active, inactive

Before answering, review these 10 worked examples.
Request: Check the results log: what was the call for N=C(N)c1ccc(OCCCCCOc2ccc(C(=N)N)cc2)cc1 ?
Response: inactive

Request: Check the results log: what was the call for O=C(Nc1ccn(CCI)c(=O)n1)c1ccccc1 ?
Response: inactive

Request: Check the results log: what was the call for C/C=C1\CC(C(=O)OCC)CCCCCCCCCCC1=O (stereo not given) ?
Response: inactive

Request: Check the results log: what was the call for Cc1cc(N(CCC#N)CCC#N)ccc1/C=C1\N=C(c2cc([N+](=O)[O-])ccc2Cl)N(c2cccc(Cl)c2)C1=O ?
Response: inactive

Request: Check the results log: what was the call for Cc1cc(S(=O)(=O)NC2=Nc3cccc4cccc(c34)N2)c(S)cc1Cl ?
Response: inactive

Request: Check the results log: what was the call for COc1ccccc1Nc1nc2c([nH]1)c(=O)n(C)c(=O)n2C ?
Response: inactive

Request: Check the results log: what was the call for CC1(C)N=C(/C(Cl)=[N+](/[O-])C(=O)c2ccc(Cl)cc2)C(C)(C)N1O ?
Response: inactive

Request: Check the results log: what was the call for O=C(Nc1ccc(Cl)cc1)c1cc2cc(/N=N/c3ccccc3Cl)ccc2oc1=O ?
Response: inactive

Request: Check the results log: what was the call for Oc1cccc(-c2cn3cc(C(F)(F)F)ccc3n2)c1 ?
Response: inactive

Request: Check the results log: what was the call for CCc1cn2c(/C=N/N=C(N)N)c(-c3cc(C)c(Cl)cc3Cl)nc2s1 ?
Response: inactive

Further cases:
Request: Check the results log: what was the call for Cc1ccc(S(=O)(=O)N(CC(O)COc2ccccc2)c2c(F)cccc2F)cc1 (stereo not given) ?
Response: inactive

Request: Check the results log: what was the call for CN(C)[C@@H]1C(O)=C(C(=O)NCNc2nc3[nH]nnc3c(=O)[nH]2)C(=O)[C@@]2(O)C(O)=C3C(=O)c4c(O)cccc4[C@@](C)(O)[C@H]3C[C@@H]12 ?
Response: active

Request: Check the results log: what was the call for CCOc1ccc(Nc2nc(N)nc(N)c2N=O)cc1 ?
Response: inactive

Request: Check the results log: what was the call for O=C1CC2CCN(C(=O)c3ccccc3)CC2CCN1 (stereo not given) ?
Response: inactive

Request: Check the results log: what was the call for CC(C)(C)c1ccc(/C=N/NC(=O)CSCC(=O)N/N=C/c2ccc(C(C)(C)C)cc2)cc1 ?
Response: inactive

Request: Check the results log: what was the call for COc1ccc(/C=N\N(C)Cc2cccc3ccsc23)cc1 ?
Response: inactive

Request: Check the results log: what was the call for CC(=O)O[C@H]1[C@H](OC(C)=O)[C@@H](CN=[N+]=[N-])OCO[C@@H]1CN=[N+]=[N-] ?
Response: inactive

Request: Check the results log: what was the call for CC(=O)NC(Cc1ccccc1)C(=S)N1CCCC1 (stereo not given) ?
Response: inactive

Request: Check the results log: what was the call for O=C(O)Cn1c(=O)[nH]c(=O)c2c1ncn2Cc1ccccc1 ?
Response: inactive

Request: Check the results log: what was the call for O=C(O)C(Cc1ccccc1)NCc1c(O)ccc2c(-c3ccccc3)cc(=O)oc12 (stereo not given) ?
Response: inactive

Request: Check the results log: what was the call for CCOC(=O)C(C)(C(=O)OCC)/C(Cl)=C\Cl ?
Response: inactive

Request: Check the results log: what was the call for COc1ccc(/C=c2/sc3n(c2=O)NC(c2ccc(Cl)cc2)NN=3)cc1 (stereo not given) ?
Response: inactive

Request: Check the results log: what was the call for COc1ccc(-c2cc(C3CC3)nc(SCC(=O)O)c2C#N)cc1 ?
Response: inactive

Request: Check the results log: what was the call for COc1ccc(S(=O)(=O)Nc2ccc(-c3csc(N4C(=O)/C(=C/c5cccs5)N=C4c4ccccc4)n3)cc2)cc1Cl ?
Response: inactive

Request: Check the results log: what was the call for CC(=O)OCOC(=O)CN(CC(=O)OCOC(C)=O)Cc1cc2c(cc1OC(C)=O)Oc1cc(OC(C)=O)c(CN(CC(=O)OCOC(C)=O)CC(=O)OCOC(C)=O)cc1C21OC(=O)c2ccccc21 ?
Response: inactive

Request: Check the results log: what was the call for CSc1nc(NC2OC(COC(C)=O)C(OC(C)=O)C(OC(C)=O)C2OC(C)=O)c(-c2csc(N)n2)c(=O)n1C (stereo not given) ?
Response: inactive
